Reported Percent Effect values are given for each entry in this list.
# Test system: Wolbachia pipientis
# Experiment Description: Anti-Wolbachia Cell-Based Screen
# Format: functional
# Set-up: scale not given: in the data most compounds retested in dose-response had high values
# Measurement Context: 5 µM
Out of some 48,000 compounds screened, about 13,000 (27%) showed an effect of 50% or more. Some of the results follow.

Recorded results for 5 compounds are shown here.
{"Compound": "CCN(CC1CCOCC1)C(=O)CCNC(=O)c1ccccc1F", "Study System": "Wolbachia pipientis", "Percent Effect": "-3.146%"}
{"Compound": "Cl.c1cnc2c(c1)cc([C@H]1CCCO1)n2CCN1CCOCC1", "Study System": "Wolbachia pipientis", "Percent Effect": "-5.726%"}
{"Compound": "Cl.c1cnc2c(c1)cc([C@@H]1CCCO1)n2CCN1CCOCC1", "Study System": "Wolbachia pipientis", "Percent Effect": "92.89%"}
{"Compound": "CCN(CC1CCOC1)C(=O)c1ccccc1S(=O)(=O)CC (configuration not stated)", "Study System": "Wolbachia pipientis", "Percent Effect": "111.1%"}
{"Compound": "CC(C)(O)CSCCNCc1ccc(Cl)c2cccnc12", "Study System": "Wolbachia pipientis", "Percent Effect": "7.695%"}

Exercise: Requested field: Percent Effect. Item: COc1ccc(OCCc2sc(C3(O)CCCNCC3)nc2C)cc1.Cl (configuration not stated)
Key: 2.251%

Exercise: Please give the result for CN(CC1CCCO1)C1CCN(CCc2ccccn2)CC1 (configuration not stated) too.
Key: 4.903%

Exercise: // repeat for CC(C)(C)NC(=O)Cn1cc(C(N)=O)c(-c2ccccc2)n1 and report
Key: 6.588%

====

# System: Wolbachia pipientis
# Experiment Description: Anti-Wolbachia Cell-Based Screen
# Format: functional
# Design: scale not given: in the data most compounds retested in dose-response had high values
# Measurement Context: 5 µM
Among all 48,000 compounds or so, about 13,000 (27%) showed an effect of 50% or more. This is one part of the list.
# Percent Effect values compiled below
Numbers only; they are read as %.

Exercise: // returns reported Percent Effect for input COCCCNC(=O)C(C)(C)N(C)C1CCCC1
Key: 11.81

====

# System: Wolbachia pipientis
# Experiment Description: Anti-Wolbachia Cell-Based Screen
# Assay type: functional
# Design: scale not given: in the data most compounds retested in dose-response had high values
# Measurement Context: 5 µM
The whole screen tested about 48,000 compounds, of which about 13,000 (27%) showed an effect of 50% or more. Some of the results follow.
Quantity Name: Percent Effect
The answer consists of two parts: a number and, after it, its unit.

{"Compound": "CC(C)NC(=O)N1C[C@H]2C[C@H](C(=O)N3CCCC3)[C@@H](C1)O2", "Experimental Result": "-51.72%"}
{"Compound": "CC(=O)N1CCC2(CC1)CN(C(C)=O)CC21CCNC1=O (stereo not given)", "Experimental Result": "-37.65%"}
{"Compound": "Cc1nc(C)c(CC(=O)NCc2cccnc2OC2CCCC2)c(=O)[nH]1", "Experimental Result": "2.143%"}

Exercise: Recorded Percent Effect for CN(C)C(=O)[C@H]1C[C@@H]2CN(S(=O)(=O)c3ccccc3)C[C@H]1O2 , please?
Key: 1.569%

Exercise: # iterate: CCN(C)CC1CCN(C(=O)NCCC2Cc3ccccc3C2)C1 (stereo not given)
Key: -23.1%

Entry source: ChEMBL document CHEMBL3988442
